- protocol summary: Inhibition of calf brain tubulin assembly
- Design: species or system Bos taurus
pEC50: −log10 of the molar value.
property label: pEC50

>>> df
                              smiles_record  value_reported
0  COc1ccc2c(c1N)C(=O)O[C@@H]2[C@H]1c2c(cc3c(c2OC)OCO3)CCN1C            5.92

###

- Test system: SNU-398
- protocol summary: Antiproliferative activity against human SNU398 cells
- Format: functional, cell-based
pIC50: −log10 of the molar value.

smiles record	bound sign	pIC50
C/C(=C\c1csc(C)n1)[C@@H]1C[C@@H]2O[C@]2(C)CCC[C@H](C)[C@H](O)[C@@H](C)C(=O)C(C)(C)[C@@H](O)CC(=O)O1	=	8.30
COc1ccc2c(c1OC)C(=O)O[C@@H]2[C@H]1c2c(cc3c(c2OC)OCO3)CCN1C	<	5.70
CC[C@]1(O)C[C@H]2CN(CCc3c([nH]c4ccccc34)[C@@](C(=O)OC)(c3cc4c(cc3OC)N(C=O)[C@H]3[C@@](O)(C(=O)OC)[C@H](OC(C)=O)[C@]5(CC)C=CCN6CC[C@]43[C@@H]65)C2)C1	=	7.33
COc1ccc2c(c1N)C(=O)O[C@@H]2[C@H]1c2c(cc3c(c2OC)OCO3)CCN1C	=	7.03
CC(=O)O[C@@]12CO[C@@H]1C[C@H](O)[C@@]1(C)C(=O)[C@H](O)C3=C(C)[C@@H](OC(=O)[C@H](O)[C@@H](NC(=O)OC(C)(C)C)c4ccccc4)C[C@@](O)([C@@H](OC(=O)c4ccccc4)[C@H]21)C3(C)C.O.O.O	=	7.78
COc1ccc2c(c1O)C(=O)O[C@@H]2[C@H]1c2c(cc3c(c2OC)OCO3)CCN1C	<	5.70

###

- protocol summary: Antiproliferative activity against human JHH2 after 72 hrs by CellTiter Glo assay
- Format: functional
Documented IC50 across a set of molecules

molecule	IC50
COc1ccc2c(c1OC)C(=O)O[C@@H]2[C@H]1c2c(cc3c(c2OC)OCO3)CCN1C [NOSCAPINE]	> 1000 nM
CC[C@]1(O)C[C@H]2CN(CCc3c([nH]c4ccccc34)[C@@](C(=O)OC)(c3cc4c(cc3OC)N(C=O)[C@H]3[C@@](O)(C(=O)OC)[C@H](OC(C)=O)[C@]5(CC)C=CCN6CC[C@]43[C@@H]65)C2)C1 [VINCRISTINE]	> 100 nM
COc1ccc2c(c1N)C(=O)O[C@@H]2[C@H]1c2c(cc3c(c2OC)OCO3)CCN1C	> 1000 nM
C/C(=C\c1csc(C)n1)[C@@H]1C[C@@H]2O[C@]2(C)CCC[C@H](C)[C@H](O)[C@@H](C)C(=O)C(C)(C)[C@@H](O)CC(=O)O1 [PATUPILONE]	61.3 nM
CC(=O)O[C@@]12CO[C@@H]1C[C@H](O)[C@@]1(C)C(=O)[C@H](O)C3=C(C)[C@@H](OC(=O)[C@H](O)[C@@H](NC(=O)OC(C)(C)C)c4ccccc4)C[C@@](O)([C@@H](OC(=O)c4ccccc4)[C@H]21)C3(C)C.O.O.O [DOCETAXEL]	> 100 nM

###

- Tested on: Huh-7
- protocol summary: Antiproliferative activity against human HuH7 after 72 hrs by CellTiter Glo assay
- Type: functional, cell-based
- study conditions: Huh-7, 72 h
property label: IC50

smiles record	value reported
CC(=O)O[C@@]12CO[C@@H]1C[C@H](O)[C@@]1(C)C(=O)[C@H](O)C3=C(C)[C@@H](OC(=O)[C@H](O)[C@@H](NC(=O)OC(C)(C)C)c4ccccc4)C[C@@](O)([C@@H](OC(=O)c4ccccc4)[C@H]21)C3(C)C.O.O.O	12.1 nM
CC[C@]1(O)C[C@H]2CN(CCc3c([nH]c4ccccc34)[C@@](C(=O)OC)(c3cc4c(cc3OC)N(C=O)[C@H]3[C@@](O)(C(=O)OC)[C@H](OC(C)=O)[C@]5(CC)C=CCN6CC[C@]43[C@@H]65)C2)C1	20 nM
C/C(=C\c1csc(C)n1)[C@@H]1C[C@@H]2O[C@]2(C)CCC[C@H](C)[C@H](O)[C@@H](C)C(=O)C(C)(C)[C@@H](O)CC(=O)O1	4.5 nM
COc1ccc2c(c1N)C(=O)O[C@@H]2[C@H]1c2c(cc3c(c2OC)OCO3)CCN1C	218 nM
COc1ccc2c(c1OC)C(=O)O[C@@H]2[C@H]1c2c(cc3c(c2OC)OCO3)CCN1C	> 1000 nM
